Tested on: Plasmodium berghei
Assay: Screen against P. berghei liver stage (PbLuc), transformed with Luciferase, at 10uM
Type: functional, HepG2
Details: tested at 10 uM
Hit rate of the full screen: of about 69,000 compounds, about 8,600 (12%) showed an effect of 50% or more. Many of the other results were omitted from the sample, so strong results are more common in it than they were.
recorded.metric: INHIBITION
Record the result as a number with its unit.

# annotated cases, reported INHIBITION shown
>  <compound>
CCc1nnc(CN(CC)C(=O)C(C)n2ccnc2C(C)C)o1 (centres undefined)

>  <recorded.value>
30.3%

$$$$
>  <compound>
CCOC(=O)c1s/c(=N\C(=O)COc2cnc(C)cc2O)[nH]c1C

>  <recorded.value>
3.52%

$$$$
>  <compound>
CN(C)C(=O)COC1COC2(CCN(CC3CCOCC3)CC2)C1 (centres undefined)

>  <recorded.value>
12.2%

$$$$
>  <compound>
Cc1cccc(-c2noc(CN3CC(n4cc(C)cn4)C3)n2)c1

>  <recorded.value>
90%

$$$$

**Query** Sample Cc1nn(C)c(C)c1CN1CCN(CC2(O)CCCN(C)C2)CC1 (centres undefined) — what was its INHIBITION?
**Result** 20.9%

**Query** Sample CCCS(=O)(=O)N1C[C@@H]2CN(Cc3cccs3)CCO[C@@H]2C1 — what was its INHIBITION?
**Result** -2.46%

**Query** Sample CCCNC(=O)c1cc(C(C)C)nc(N2CCCC2)n1 — what was its INHIBITION?
**Result** 32.5%

**Query** Sample CC(=O)N1CCN(CCNC(=O)NC(C)Cn2ccnc2)CC1 (centres undefined) — what was its INHIBITION?
**Result** 43.5%

**Query** Sample CC(=O)NCC1CCN(CC2CCOc3ccccc3C2)CC1 (centres undefined) — what was its INHIBITION?
**Result** 37.8%

**Query** Sample CC(C)c1cc(C(=O)NCCN2CCOCC2)nc(N2CCCC2)n1 — what was its INHIBITION?
**Result** 51.6%

**Query** Sample CCCS(=O)(=O)N1C[C@@H]2CN(Cc3ccoc3)CCO[C@@H]2C1 — what was its INHIBITION?
**Result** -58.9%

**Query** Sample CC(C)n1nccc1CN1Cc2nccn2CC1c1ccccc1 (centres undefined) — what was its INHIBITION?
**Result** 7.39%

**Query** Sample CN1CCC(Oc2ccc(-n3ccnc3-c3nccn3C)cc2)CC1 — what was its INHIBITION?
**Result** 13%

====

Test system: Plasmodium berghei
Assay: Screen against P. berghei liver stage (PbLuc), transformed with Luciferase, at 10uM
Format: functional, HepG2
Settings: tested at 10 uM
The whole screen tested about 69,000 compounds, of which about 8,600 (12%) showed an effect of 50% or more. This excerpt belongs to a sample that is enriched for strong results.
Readings of INHIBITION for the listed compounds
Express your answer in %, writing the number without its unit.

**Query** Sample CC(C)(C(=O)O)S(=O)(=O)c1ccc(Br)cc1 — what was its INHIBITION?
**Result** 4.82

**Query** Sample NC(=O)C1CN(c2ccc(F)cc2)CCN1 (configuration not stated) — what was its INHIBITION?
**Result** 25.8

**Query** Sample CC1CCN(c2nc3cn(C4CCS(=O)(=O)C4)c(=O)c-3c[nH]2)CC1 (configuration not stated) — what was its INHIBITION?
**Result** -16.3

**Query** Sample c1cncc(-c2nnc(C3(c4ccc5c(c4)OCO5)CCOCC3)o2)c1 — what was its INHIBITION?
**Result** 72.2

**Query** Sample Cc1nc(C)n(CC2CCCN2Cc2ncc(C(C)(C)C)o2)n1 (configuration not stated) — what was its INHIBITION?
**Result** 63.5

====

System: Plasmodium berghei
Test: Screen against P. berghei liver stage (PbLuc), transformed with Luciferase, at 10uM
Format: functional, HepG2
Details: tested at 10 uM
The campaign covered roughly 69,000 compounds. About 8,600 (12%) showed an effect of 50% or more. The list comes from a sample in which strong results are over-represented; it also holds close analogues and randomly drawn compounds.
Would you please tag the item Fulfilled when its INHIBITION is 20% or above, and Not fulfilled when it is below?

>  <molecule>
Cc1ccsc1CN(C)c1cc(N2CCCC2CO)ncn1 (stereo not drawn)

>  <answer.label>
Not fulfilled

$$$$

**Query** Textbook exercise: given the entry CCc1cnc(C(C)NC(=O)N2CCCN(CC(F)F)CC2)s1 (stereo not drawn) , state whether its INHIBITION is greater than or equal to 20%.
**Result** Not fulfilled

**Query** Textbook exercise: given the entry Cc1cc(C(=O)N(C)Cc2cccs2)nc(N2CCOCC2)n1 , state whether its INHIBITION is greater than or equal to 20%.
**Result** Not fulfilled

====

Tested on: Plasmodium berghei
Assay: Screen against P. berghei liver stage (PbLuc), transformed with Luciferase, at 10uM
Type: functional, HepG2
Conditions: tested at 10 uM
Hit rate of the full screen: of about 69,000 compounds, about 8,600 (12%) showed an effect of 50% or more. The sample as a whole holds a higher share of strong results than the screen did.
recorded.metric: INHIBITION (%)
Express your answer in %, writing the number without its unit.

>  <molecule>
CN1CCCC1c1cccc(Cc2ccc(F)cc2)n1 (stereo not drawn)

>  <recorded.value>
100

$$$$
>  <molecule>
Cn1cccc1CN1CCC2(CCCN(C(=O)c3cccnc3)C2)CC1

>  <recorded.value>
-43.1

$$$$
>  <molecule>
CC1(C)CC1(C(=O)N1CC(c2cccnc2)C1)c1ccc(F)cc1 (stereo not drawn)

>  <recorded.value>
21.2

$$$$
>  <molecule>
CN(C)CC1CN(Cc2nc(-c3ccccn3)no2)CCO1 (stereo not drawn)

>  <recorded.value>
-11.4

$$$$
>  <molecule>
Cc1ccc(-c2noc(CN3CC(n4cc(C)cn4)C3)n2)cc1

>  <recorded.value>
90.9

$$$$

**Query** Sample CC(=O)N1CCCC1c1cccc(NCc2ccccc2F)n1 (stereo not drawn) — what was its INHIBITION?
**Result** 64.1

**Query** Sample O=C(NCCC(=O)N1CCCCCCC1)c1ccoc1 — what was its INHIBITION?
**Result** -18

**Query** Sample Cc1ccc(C(=O)NS(=O)(=O)Cc2ccccc2)cc1S(C)(=O)=O — what was its INHIBITION?
**Result** 1.98

====

System: Plasmodium berghei
Assay: Screen against P. berghei liver stage (PbLuc), transformed with Luciferase, at 10uM
Assay type: functional, HepG2
Conditions: tested at 10 uM
Out of some 69,000 compounds screened, about 8,600 (12%) showed an effect of 50% or more. The entries come from a sample that favours strong results as a whole.
recorded.metric: INHIBITION
Record the result as a number with its unit.

>  <molecule>
Cc1nc[nH]c1-c1nccn1CCN(C)S(C)(=O)=O

>  <measured.target>
Plasmodium berghei

>  <recorded.value>
8.86%

$$$$
>  <molecule>
Cc1nccc(-c2cccc(NCC(=O)N3CCOC(C)C3)c2)n1 (stereo unspecified)

>  <measured.target>
Plasmodium berghei

>  <recorded.value>
15.5%

$$$$
>  <molecule>
c1cc(CN2CCCC2)cc(-n2ccnc2-c2ccncc2)c1

>  <measured.target>
Plasmodium berghei

>  <recorded.value>
22.7%

$$$$
>  <molecule>
Cn1ccnc1-c1nccn1-c1cccc(CN2CCCC2)c1

>  <measured.target>
Plasmodium berghei

>  <recorded.value>
39.9%

$$$$

**Query** Sample O=C(c1cccs1)N1CCCC(c2cc(C(F)F)n3ncnc3n2)C1 (stereo unspecified) — what was its INHIBITION?
**Result** 40%

**Query** Sample CCN(CC)CCn1ccnc1-c1cccc(O)c1 — what was its INHIBITION?
**Result** -18.8%

====

System: Plasmodium berghei
Test: Screen against P. berghei liver stage (PbLuc), transformed with Luciferase, at 10uM
Type: functional, HepG2
Settings: tested at 10 uM
Out of some 69,000 compounds screened, about 8,600 (12%) showed an effect of 50% or more. The list comes from a sample in which strong results are over-represented; it also holds close analogues and randomly drawn compounds.
Would you please tag the item t when its INHIBITION is 20% or above, and f when it is below?

The examples below pair each entry with its known result.
>  <compound>
CC(=O)Nc1ccc(CCC2(NC(=O)C3CC3)CCCCC2)cn1

>  <answer.label>
t

$$$$
>  <compound>
CC(O)(CN1CCN(CCO)CC1)c1cccc(C(F)(F)F)c1 (stereo unspecified)

>  <answer.label>
f

$$$$
>  <compound>
O=C(NCC1CC1)c1cc(Br)cnc1N1CCCCC1

>  <answer.label>
f

$$$$
>  <compound>
COc1cccc(OCC(=O)N2CCCSCC2CN2CCOCC2)c1 (stereo unspecified)

>  <answer.label>
t

$$$$

**Query** Textbook exercise: given the entry O=C(CN1CC(c2ccccc2)CC1=O)NCc1cc2n(n1)CCNC2 (stereo unspecified) , state whether its INHIBITION is greater than or equal to 20%.
**Result** f

**Query** Textbook exercise: given the entry O=S(=O)(c1ccccc1)N1C2CCC(O)(CC2)C1CN1CCOCC1 (stereo unspecified) , state whether its INHIBITION is greater than or equal to 20%.
**Result** t
